# assay_target: T1, hANGPTL3(17-460)-His (human, UniProt Q9Y5C1 17-460)
# T1 construct: Bought protein (R&D Systems); also called full-length mature human ANGPTL3 with a C-terminal decahistidine tag; Human ANGPTL3 (17-460)-His
# T1 sequence: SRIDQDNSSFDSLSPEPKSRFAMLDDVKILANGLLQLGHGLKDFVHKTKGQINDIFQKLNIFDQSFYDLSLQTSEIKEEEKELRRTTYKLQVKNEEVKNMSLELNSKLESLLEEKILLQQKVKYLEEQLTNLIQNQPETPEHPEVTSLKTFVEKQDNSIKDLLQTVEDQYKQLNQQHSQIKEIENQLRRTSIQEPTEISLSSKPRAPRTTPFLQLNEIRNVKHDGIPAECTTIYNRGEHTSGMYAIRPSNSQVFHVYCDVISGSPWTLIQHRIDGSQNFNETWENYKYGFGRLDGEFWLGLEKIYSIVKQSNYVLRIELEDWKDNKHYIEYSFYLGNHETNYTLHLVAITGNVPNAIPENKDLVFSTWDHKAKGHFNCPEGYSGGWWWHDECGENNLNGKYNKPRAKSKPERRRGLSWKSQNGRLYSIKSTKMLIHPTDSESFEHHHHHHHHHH
# assay_procedure: SPR Biacore, antigen captured, 37C, pH 7.4, HBS-EP
What kon was measured for each of the following?
Numbers only here, please. The scale is M⁻¹ s⁻¹.

Annotate the binder H4H1263S (antibody, IgG4, V domains shown) VH: QVQLVQSGGGVVQPGRSLRLSCAASGFTFSTYGMHWVRQAPGKGLEWMAVISFDRGNKYYADSVKGRFTISRDNSKNTLYLQMNSLRAEDTAVYYCAKGGGSGTFYYYYGMDVWGQGTTVTVSS VL: DIQMTQSPSSVSASVGNRVTITCRASQGISSWLAWYHQKPGKVPKVLIYAASSLQSGVPSRFSGSGSGTDFTLTISSLQPEDFATYYCQQANSFPFTFGPGTKVEIKR with its measured kon.
4.74e+06

Annotate the binder H4H1248P (antibody, IgG4, V domains shown) VH: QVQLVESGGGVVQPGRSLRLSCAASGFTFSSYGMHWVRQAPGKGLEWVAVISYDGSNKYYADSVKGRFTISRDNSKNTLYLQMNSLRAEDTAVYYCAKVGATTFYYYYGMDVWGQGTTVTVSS VL: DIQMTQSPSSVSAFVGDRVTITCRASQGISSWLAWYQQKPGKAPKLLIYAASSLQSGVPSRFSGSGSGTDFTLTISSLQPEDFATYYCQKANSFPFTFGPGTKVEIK with its measured kon.
1.96e+06

Annotate the binder H1M896N (antibody, V domains shown) VH: EVQLLESGGGLVQPGGSLRLSCAASGFTFSTYAMSWVRQAPGKGLEGVSGISGTGYRTYYADSVKGRFTISRDNSKNSLYLQMNSLRAEDTAVYYCAKDRGLLWFGELTYWGQGTLVTVSS VL: DIQMTQSPSTLSASVGDRVTITCRASQSINNWLAWYQQKPGKAPNLLIYKASSLESGVPSRFSGSGSGTEFTLTISSLQPDDFATYYCQQYNDYWTFGQGTKVEIK with its measured kon.
3.36e+06
